Measured pIC50 accompanies every entry in the list below.
# tested on: recombinant, purified human ATX (Homo sapiens, UniProt Q13822)
# test description: Mechanism of autotaxin inhibition (IC50, Ki, Ki′; FS-3 hydrolysis)
# assay setup: 8.3 nM ATX, 1 μM FS-3, 15 μM BSA
pIC50: −log10 of the molar value.
property: pIC50

INSERT INTO measurements (compound, data_value) VALUES
  ('CCCCCCCCCCCCCCCc1ccc(C(F)P(=O)(O)O)cc1 (stereo not drawn) [Compound 41]', 4.75),
  ('CCCCCCCCCCC/C=C/c1ccc2cc(CP(=O)(O)O)ccc2c1 [Compound 30b]', 5.85),
  ('CCCCCCCCCCCCCCCc1ccc(C(Br)P(=O)(O)O)cc1 (stereo not drawn) [Compound 43]', 5.00),
  ('CCCCCCCCCCCCCCCc1ccc(COP(O)(O)=S)cc1 [Compound 47]', 5.81),
  ('CCCCCCCCCCCCCCCc1ccc(C(O)P(=O)(O)O)cc1 (stereo not drawn) [Compound 37]', 6.14),
  ('CCCCCCCCCCCCCCCc1ccc(CP(=O)(O)O)cc1 [Compound 22, 4-Pentadecylbenzylphosphonic acid]', 6.77);

---

Quick reference: remaining activity at 10 µM of the listed items.
# tested on: recombinant human ATX (Homo sapiens)
# test description: Autotaxin inhibition screening assay (FS-3 FRET substrate)
# Assay type: biochemical
# assay setup: 10 μM compound; 2 nM recombinant human ATX; 1 μM FS-3; 2 h, 37° C.; read-out: ATX Activity, % control (10 μM)
property: remaining activity at 10 µM (%)

INSERT INTO assay_data (compound, data_value) VALUES
  ('CCCCCCCCCC/C=C/c1ccc2cc(CP(=O)(O)O)ccc2c1 [Compound 30a]', 61.3),
  ('CCCCCCCCCCCCc1ccc2cc(CP(=O)(O)O)ccc2c1 [Compound 34a]', 19.9),
  ('CCCCCCCCCCCCCCCc1ccc(C(O)P(=O)(O)O)cc1 (stereo not drawn) [Compound 37]', 9.2),
  ('CCCCCCCCCCCCC/C=C/c1ccc(CP(=O)(O)O)cc1 [Compound 18]', 18.8),
  ('CCCCCCCCCCCCCCCc1ccc(C(Cl)P(=O)(O)O)cc1 (stereo not drawn) [Compound 42]', 118),
  ('CCCCCCCCCCCCCc1ccc2cc(CP(=O)(O)O)ccc2c1 [Compound 34b]', 50.8),
  ('CCCCCCCCCCCCCCCc1ccc(C(Br)P(=O)(O)O)cc1 (stereo not drawn) [Compound 43]', 60.1),
  ('CCCCCCCCCCC/C=C/c1ccc2cc(CP(=O)(O)O)ccc2c1 [Compound 30b]', 17.3),
  ('CCCCCCCCCCCCCCCc1ccc(CP(=O)(O)O)cc1 [Compound 22, 4-Pentadecylbenzylphosphonic acid]', 5.2);

---

# tested on: recombinant, purified human ATX (Homo sapiens)
# test description: Mechanism of autotaxin inhibition (IC50, Ki, Ki′; FS-3 hydrolysis)
# Format: biochemical
# assay setup: affinity for enzyme substrate complex
pKi: −log10 of the molar value.
Items are presented alongside their recorded pKi.
property: pKi

INSERT INTO results (molecule, tested_on, data_value) VALUES
  ('CCCCCCCCCCCCCCCc1ccc(C(O)P(=O)(O)O)cc1 (stereo not drawn)', 'recombinant, purified human ATX (Homo sapiens)', 6.15),
  ('CCCCCCCCCCCCCCCc1ccc(C(Br)P(=O)(O)O)cc1 (stereo not drawn)', 'recombinant, purified human ATX (Homo sapiens)', 5.53),
  ('CCCCCCCCCCCCCCCc1ccc(CP(=O)(O)O)cc1', 'recombinant, purified human ATX (Homo sapiens)', 6.55),
  ('CCCCCCCCCCC/C=C/c1ccc2cc(CP(=O)(O)O)ccc2c1 [Compound 30b]', 'recombinant, purified human ATX (Homo sapiens)', 6.00),
  ('CCCCCCCCCCCCCCCc1ccc(COP(O)(O)=S)cc1', 'recombinant, purified human ATX (Homo sapiens)', 5.35),
  ('CCCCCCCCCCCCCCCc1ccc(C(F)P(=O)(O)O)cc1 (stereo not drawn)', 'recombinant, purified human ATX (Homo sapiens)', 5.26);

All figures here come from patent US8673882B2.
